Kindly supply the reported protein stability index values for the records listed here.
B1: TRIM43 (parent)
chain: YQEIFQQLQRSWVKMDQKSKHLKE

- Variants of: B1
- method: protein stability index of a GFP-peptide fusion (GPS, HEK-293T) (PSI 1-6); higher = more stable;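 further: lentivirally expressed fusions sorted by FACS into six bins by GFP to DsRed ratio, PSI derived from sequencing read proportions per bin multiplied by bin number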
- condition_context: c terminus: a fixed tail appended
Answers are plain numbers.

// solved cases for protein stability index follow
R10W : 1.89
F5P : 2.79
Q2R : 1.56
S11N : 2.73
Y1H : 3.7
F5K : 3.17
V13S : 2.38
H21C : 2.65

Required: protein stability index, one value per variant below.
1. Q17E
2. E24V
3. K20L
4. I4P
5. D16H
6. K20P

Solution:
1. 1.98
2. 1.81
3. 1.82
4. 1.93
5. 2.73
6. 2.48

Hi! Can you tell me protein stability index for each of these variants?
1. R10Q
2. Q9Y
3. I4L
4. Q17H

Solution:
1: 2.35; 2: 2.67; 3: 2.19; 4: 2.12

For each of the items listed, what is its protein stability index?
1. K18M
2. K23V
3. K23F
4. K20V

Solution:
[1.64, 1.92, 1.47, 1.94]
